tested on: MS2 coat protein; assay: apparent KD of MS2 coat protein; designed switch direction (-1 OFF switch, 1 ON switch): -1; higher = weaker reporter binding; conditions: input ligand: none
Everything with apparent KD of MS2 coat protein lower than 0.03 µM is NO; everything else, including exactly 0.03 µM, is YES.

Examples with answers:
GCAAGCUUUUUGGUUUUCAACAUGAGGAUCACCCAUGUUCGUCUUAUACCCGGGCCCGGGCGGUGCCCGGGCCCGGG [-40, -68 kcal, A 14%] (Eterna round: R97, puzzle: Sensor, turn-off variant 1): NO
CUGUGCUGACGGAGAUCCAACAUGAGGAUCACCCAUGUCUCAAAAGCUUUUUGCUCGUCUUAUCCUCCUCAGUACAC [Mat - Sensor, turn-off var - Eli Mod - D56] (Eterna round: R97, puzzle: Sensor, turn-off variant 1): NO
UUUACAAGCUAUAGAUCCCACAUGAGGAUCACCCAUGUUGCUGCCAACGGUAGCUUUUUAUGGUUUGCUCGUCUUAU [JL TOV1 3.35] (Eterna round: R97, puzzle: Sensor, turn-off variant 1): YES
GUUAUGUAAGGAUAUAUGAGUCACGGAAAUAAACCGUGAAGAUAGAAGGUACAUGAGGAUCACCCAUGUAAGGC [Mod of Anonveat 9 - Jieux - Exclusion 4] (Eterna round: R97, puzzle: Exclusion 4): NO
UGUUGUUACGCAGGAUAUGCAUGAGGAUCACCCAUGCAAUUAGAGUUAACAUGAGGAUCACCCAUGUAGAAGGGCGGGUUAACA [pwkr exNG2 2xF5 1xFMN.4] (Eterna round: R96, puzzle: Exclusion NG 2): YES

Assess whether reported apparent KD of MS2 coat protein for GAGAGAGACAUAGGAUAUUCACCCACACAUGAGGAAGAAGGAUGUAGACAUGAGGAUCACCCAUGUGGAUCACCCAUGUUUGUG [All by luck] (Eterna round: R96, puzzle: Exclusion NG 1) sits at 0.03 µM or higher.
NO

Assess whether reported apparent KD of MS2 coat protein for AGUUGGCGAGGAUAUACAUGAGGAUCACCCAUGUGAGGGAUACUAGUGAGGUCGAUUAGUAGAAGGCGCUGACA [Mat X3R4 m9] (Eterna round: R97, puzzle: Exclusion 3) sits at 0.03 µM or higher.
YES

Assess whether reported apparent KD of MS2 coat protein for AAUAUCGUAGGAUAUUAAUACUCAGACAUGAGGAUCACCCAUGUUUGGUGGGUCGGAGAAUGAGAAGGGCGAUGAA [EX5 #15] (Eterna round: R97, puzzle: Exclusion 5) sits at 0.03 µM or higher.
YES

Assess whether reported apparent KD of MS2 coat protein for UCUGGUCGAGGAUAUACAUUCGUGCUUCGGCACGUAAGAUCACAUGAGGAUCACCCAUGUAGAAGGCGACCAGA [E2/5-A3] (Eterna round: R97, puzzle: Exclusion 2) sits at 0.03 µM or higher.
YES

Assess whether reported apparent KD of MS2 coat protein for CAGUACUGAGGAUAUACAUGAGGAUCACCCAUGUUUUCCAGCUAGGAUACUAGCAAGUGUAGAAGGCAGUACUG [Mat - Exclusion 3 - Eli Mod - D6] (Eterna round: R97, puzzle: Exclusion 3) sits at 0.03 µM or higher.
NO

Assess whether reported apparent KD of MS2 coat protein for GAACUAAGGCAAAGCUUUAGUCGUACAUGAGGAUCACCCAUGUAGGAUAUGGUAGGCAAAGCAUACCAGAAGGACAGAGUGAUC [Mat - Exclusion NG 3 - Mod of JL - D62] (Eterna round: R96, puzzle: Exclusion NG 3) sits at 0.03 µM or higher.
YES

Assess whether reported apparent KD of MS2 coat protein for GCGCACCUACCAAAAGGUAGGUCAACAUGAGGAUCACCCAUGUAGGAUAUCGAUUGCUUUGCAGUCGAGAAGGACGUGAUGCGC [JL ENG3 3.80 Mod 15] (Eterna round: R96, puzzle: Exclusion NG 3) sits at 0.03 µM or higher.
YES

Assess whether reported apparent KD of MS2 coat protein for AUAAUUUAAGGAUAUACGUGGCGAGCCAGAUAGCUGGGUCUACAUGAGGAUCACCCAUGUAGAAGGUAAGGAUU [Eternabot (L1) Solution 23] (Eterna round: R97, puzzle: Exclusion 2) sits at 0.03 µM or higher.
NO

Assess whether reported apparent KD of MS2 coat protein for GGUUAUUGCAAGGAUAUGCUUUUUUUUGAAAUUGCAGAAGGUGCAACAUGAGGAUCACCCAUGUUGGAUGGGUU [JR_E6_Sub018] (Eterna round: R96, puzzle: Exclusion 6) sits at 0.03 µM or higher.
YES

Assess whether reported apparent KD of MS2 coat protein for GAAAACGCAGAGGAUAUAUCAGAUCAAAGCUGCAUAGAAGGCUGCACAUGAGGAUCACCCAUGUGGUCUUUAAU [Mat - Exclusion 6 - JL Mod - D1] (Eterna round: R97, puzzle: Exclusion 6) sits at 0.03 µM or higher.
NO

Assess whether reported apparent KD of MS2 coat protein for CGUACUAACACGAAAGUGUUAGUACAAUAAGCUUGUGAAACAUGAGGAUCACCCAUGUCCUCAUAAGCUCGUCUUAU [salish99_TOv2_r3_007] (Eterna round: R96, puzzle: Sensor v3, turn-off variant 2) sits at 0.03 µM or higher.
NO

Assess whether reported apparent KD of MS2 coat protein for AGCCACAGAGGAUAUACAUACAUCCAGUAGCGUAUAUCGCUACAUGAGGAUCACCCAUGUAGAAGGCUGUGGCA [Omei Ex2 BD B23] (Eterna round: R97, puzzle: Exclusion 2) sits at 0.03 µM or higher.
NO

Assess whether reported apparent KD of MS2 coat protein for GUGGGUCCUCACGGUGCUACAUGAGGAUCACCCAUGUGGAUUGAGGAUAUCGUAACCCGACGGGACGAGAAGGCAGUUUACUGU [Ex NG3 #99] (Eterna round: R96, puzzle: Exclusion NG 3) sits at 0.03 µM or higher.
NO
